- TEST DESCRIPTION: Drug degradation in PBS buffer assessed as parent compound level at 10 uM after 24 hrs by HPLC/UV-vis spectroscopic analysis
- Assay type: physicochemical
- CONDITION: read-out: Stability
Kindly supply the reported remaining at 24 h, 10 µM values for the records listed here.
Answers are plain numbers, in %.

| SMILES ENTRY | remaining at 24 h, 10 µM / % |
| --- | --- |
| Nc1c(C(=O)O)ccc[n+]1[O-] | 101 |

// below: remaining at 24 h, 10 µM requested for another compound
Returns the measured remaining at 24 h, 10 µM for the input compound. Input: `Cc1ccc(C(=O)O)c(N)[n+]1[O-]`
101

====

Provide the reported inhibition of each item.
- TESTED TARGET: 3-hydroxyanthranilate 3,4-dioxygenase (Homo sapiens) (UniProt P46952)
- Sequence (whole entry): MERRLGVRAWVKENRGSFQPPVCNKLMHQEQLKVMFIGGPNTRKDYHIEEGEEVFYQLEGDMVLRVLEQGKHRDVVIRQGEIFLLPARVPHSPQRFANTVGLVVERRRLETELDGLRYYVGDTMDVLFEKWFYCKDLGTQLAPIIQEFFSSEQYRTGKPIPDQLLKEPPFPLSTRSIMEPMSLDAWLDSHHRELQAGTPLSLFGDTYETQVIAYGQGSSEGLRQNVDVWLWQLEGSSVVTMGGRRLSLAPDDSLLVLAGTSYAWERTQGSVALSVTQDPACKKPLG
- TEST DESCRIPTION: Inhibition of 3-HAO in human brain homogenates using [1-14C]-3-HANA as substrate assessed as [14C]-QUIN production at 100 uM after 1 hr by liquid scintillation spectrometric analysis relative to control
- Format: tissue-based
Answers are plain numbers, in %.

Guide cases for inhibition, answers given:
| SMILES ENTRY | MEASURED ENDPOINT | UNITS OF MEASURE | REPORTED |
| --- | --- | --- | --- |
| Cc1cc(C(C)C)c(C(=O)O)c(N)[n+]1[O-] | inhibition | % | 10.2 |
| Nc1c(C(=O)O)ccc[n+]1[O-] | inhibition | % | 88.8 |
| Cc1ccc(C#N)c(N)[n+]1[O-] | inhibition | % | -0.5 |
| CC(C)c1cc(C(C)C)[n+]([O-])c(N)c1C(=O)O | inhibition | % | 1.5 |
| Cc1cc(C(=O)O)c(N)[n+]([O-])c1 | inhibition | % | 52.6 |
| CCc1cc(C)[n+]([O-])c(N)c1C(=O)O | inhibition | % | 10.9 |
| Cc1cc(-c2ccccc2)c(C(=O)O)c(N)[n+]1[O-] | inhibition | % | 4.1 |
| O=c1[nH]cnc2c1ccc[n+]2[O-] | inhibition | % | 13 |
| CCc1ccc(C(=O)O)c(N)[n+]1[O-] | inhibition | % | 88.4 |
| Cc1ccc(C(=O)O)c(N)n1 | inhibition | % | 0.7 |

Please report inhibition for every entry that follows.
1. COC(=O)c1ccc(C)[n+]([O-])c1N
2. Nc1c(C(=O)O)cc(Br)c[n+]1[O-]

1. -5.8
2. 67.2

Form: Entry = `Cc1ccc(C(N)=O)c(N)[n+]1[O-]` | System = 3-hydroxyanthranilate 3,4-dioxygenase (Homo sapiens) (UniProt P46952) | inhibition = ____
1.3

====

- TEST DESCRIPTION: Chemical stability in PBS buffer assessed as auto-oxidative degradation after 24 hrs by HPLC analysis
- Format: physicochemical
- CONDITION: read-out: Drug degradation
MEASURED ENDPOINT: degraded at 24 h (%)
Give bare numbers, in %.

For the compound shown here, `Nc1c(C(=O)O)ccc(Cl)c1O` , give the reported degraded at 24 h.
62

====

- TESTED TARGET: 3-hydroxyanthranilate 3,4-dioxygenase (Homo sapiens) (UniProt P46952)
- TEST DESCRIPTION: Inhibition of 3-HAO in human brain homogenates using [1-14C]-3-HANA as substrate assessed as [14C]-QUIN production at 100 uM after 1 hr by liquid scintillation spectrometric analysis relative to control
- Assay type: tissue-based
MEASURED ENDPOINT: inhibition (%)
Numbers only, in %.

Examples with answers:
| SMILES ENTRY | TESTED TARGET | inhibition, % |
| --- | --- | --- |
| Cc1cc(C)[n+]([O-])c(N)c1C(=O)O | 3-hydroxyanthranilate 3,4-dioxygenase (Homo sapiens) (UniProt P46952) | 16.3 |
| Cc1cc(C(=O)O)c(N)[n+]([O-])c1C | 3-hydroxyanthranilate 3,4-dioxygenase (Homo sapiens) (UniProt P46952) | 76.3 |
| Nc1c(C(=O)O)cc(Cl)c[n+]1[O-] | 3-hydroxyanthranilate 3,4-dioxygenase (Homo sapiens) (UniProt P46952) | 68.6 |
| Nc1c(C(=O)O)ccc(Cl)[n+]1[O-] | 3-hydroxyanthranilate 3,4-dioxygenase (Homo sapiens) (UniProt P46952) | 89.6 |
| O=C(O)c1ccc(Cl)[n+]([O-])c1 | 3-hydroxyanthranilate 3,4-dioxygenase (Homo sapiens) (UniProt P46952) | -3 |

Please tell me: inhibition of `Cc1ccc(C(=O)O)c(N)[n+]1[O-]` , system 3-hydroxyanthranilate 3,4-dioxygenase (Homo sapiens) (UniProt P46952)?
92.3

====

- TESTED TARGET: 3-hydroxyanthranilate 3,4-dioxygenase (Rattus norvegicus) (UniProt P46953)
- Sequence (P46953 whole entry): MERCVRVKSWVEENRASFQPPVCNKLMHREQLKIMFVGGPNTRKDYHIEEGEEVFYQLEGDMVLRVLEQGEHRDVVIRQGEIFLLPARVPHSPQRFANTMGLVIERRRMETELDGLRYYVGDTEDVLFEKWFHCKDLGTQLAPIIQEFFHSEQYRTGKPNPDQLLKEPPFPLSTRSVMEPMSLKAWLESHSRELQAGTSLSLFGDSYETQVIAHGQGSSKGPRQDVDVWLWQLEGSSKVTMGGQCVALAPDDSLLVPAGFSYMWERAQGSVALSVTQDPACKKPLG
- TEST DESCRIPTION: Inhibition of 3-HAO in Sprague-Dawley rat brain homogenates using [1-14C]-3-HANA as substrate assessed as [14C]-QUIN production at 10 uM after 1 hr by liquid scintillation spectrometric analysis relative to control
- Assay type: tissue-based
Note to self: values exactly at 70% are yes (1). So inhibition at or above 70% is yes (1), below is no (0).

| SMILES ENTRY | QUALITATIVE LABEL |
| --- | --- |
| O=c1[nH]cnc2c1ccc[n+]2[O-] | no (0) |
| Cc1ccc(C(=O)O)c(N)[n+]1[O-] | yes (1) |
| COC(=O)c1ccc(C)[n+]([O-])c1N | no (0) |
| Nc1c(C(=O)O)ccc(Cl)[n+]1[O-] | no (0) |

Note: attention shifts to another entry.
Test whether the compound `Cc1cc(C(=O)O)c(N)[n+]([O-])c1C` records inhibition of 70% or higher.
no (0)
